# Tested Target: T1, TJP3_3, O95049
# T1 sequence (O95049 375-456, limits assumed, looked up): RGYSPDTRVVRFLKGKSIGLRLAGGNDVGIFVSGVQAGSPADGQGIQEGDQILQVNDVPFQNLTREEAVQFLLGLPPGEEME
# Assay Procedure: holdup assay
# Parameters: key: below the threshold = too weak to quantify, mostly under pKd 3.1 to 4
# Measurement Parameters: plain residues with an end cap or a label only (N-terminal biotin on a linker: ttds)
Quantity Kind: pKd

KKYVDAETSL [SLC4A7, Q9Y6M7] | below the threshold
RHTTSTETAV [HPV30-E6, P36809] | below the threshold
SGSRPSATVV [HPV73-E6, Q82005] | below the threshold
QRQARSETLV [HPV59-E6, Q81964] | 3.7
SKPTRRETEV [HPV35-E6, P27228] | below the threshold
